Assignment: determine reported % reduction in OD for the given binders.
Target: pre-existing anti-scFv903 antibodies in human serum H115 (human)
Experiment: competition ADA bridging ELISA, 100 mcg/ml competitor
State just the number; it will be interpreted in %.

I have this binder here, scFv 961 (scFv) scFv: EIVMTQSPSTLSASVGDRVIITCQASEIIHSWLAWYQQKPGKAPKLLIYLASTLASGVPSRFSGSGSGAEFTLTISSLQPDDFATYYCQNVYLASTNGANFGQGTKLTVLGGGGGSGGGGSGGGGSGGGGSEVQLVESGGGSVQPGGSLRLSCTASGFSLTDYYYMTWVRQAPGKGLEWVGFIDPDDDPYYATWAKGRFTISRDTSKNTVYLQMNSLRAEDTATYYCAGGDHNSGWGLDIWGQGTTVTVSS , and I need its recorded % reduction in OD.
-31.4

I have this binder here, scFv 903 (scFv) scFv: EIVMTQSPSTLSASVGDRVIITCQASEIIHSWLAWYQQKPGKAPKLLIYLASTLASGVPSRFSGSGSGAEFTLTISSLQPDDFATYYCQNVYLASTNGANFGQGTKLTVLGGGGGSGGGGSGGGGSGGGGSEVQLVESGGGLVQPGGSLRLSCTASGFSLTDYYYMTWVRQAPGKGLEWVGFIDPDDDPYYATWAKGRFTISRDTSKNTVYLQMNSLRAEDTAVYYCAGGDHNSGWGLDIWGQGTLVTVSS , and I need its recorded % reduction in OD.
-94.7

I have this binder here, scFv 791 (scFv) scFv: MEIVMTQSPSTLSASLGDRVIITCQSSQSVYGNIWMAWYQQKSGKAPKLLIYQASKLASGVPSRFSGSGSGAEFSLTISSLQPDDFATYYCQGNFNTGDRYAFGQGTKLTVLGGGGGSGGGGSGGGGSGGGGSEVQLVESGGGLVQPGGSLRLSCTASGFTISRSYWICWVRQAPGKGLEWVACIYGDNDITPLYANWAKGRFPVSTDTSKNTVYLQMNSLRAEDTAVYYCARLGYADYAYDLWGQGTLVTVSS , and I need its recorded % reduction in OD.
-94.8

I have this binder here, scFv105 (scFv) scFv: DIVMTQSPSSLSASVGDRVTLTCTASQSVSNDVVWYQQRPGKAPKLLIYSAFNRYTGVPSRFSGRGYGTDFTLTISSLQPEDVAVYYCQQDYNSPRTFGQGTKLEVKRGGGGSGGGGSGGGGSSGGGSQVQLVQSGAEVKKPGASVKVSCTASGYTFTHYGMNWVRQAPGKGLEWMGWINTYTGEPTYADKFKDRFTFSLETSASTVYMELTSLTSDDTAVYYCARERGDAMDYWGQGTLVTVSS , and I need its recorded % reduction in OD.
-60.4
